Item-by-item account of CPE inhibition
- assay.name: inhibition of RSV-induced cytopathic effect – HEp-2 cells, primary 10 µM value included (AID 2391)
- experimental.conditions: at 10 µM, active compounds read high
In all, about 310,000 compounds went through this assay and about 410 (0.13%) were called active. Inconclusive results (about 2%) are left out. These entries were drawn from the full list. Results with a measured potency or affinity are listed apart.

GET /values?readout=CPE inhibition&item= "Fc1ccc(Nc2nc(-c3ccncc3)nc3ccccc23)cc1"
4.4% (inactive)

---

- assay.name: inhibition of RSV-induced cytopathic effect – HEp-2 cells, primary 10 µM value included (AID 2391)
- experimental.conditions: at 10 µM, active compounds read high
Among all 310,000 compounds or so, about 410 (0.13%) were called active. Inconclusive results (about 2%) are left out. These entries were drawn from the full list. Potency and affinity values are given separately.
quantity: CPE inhibition (%)
# unit: % | format: bare number

Known results for compounds:
{"compound": "CC(C)(C)c1ccc(C(=O)c2c[nH]c(C(=O)NCCCn3ccnc3)c2)cc1", "CPE inhibition [%]": 15.1}
{"compound": "COc1ccc(NC(=O)Nc2ccc3c(c2)CCC3)c(OC)c1", "CPE inhibition [%]": 3.19}
{"compound": "CCOc1ccc(C(C(=O)NC2CCCC2)N(CCOC)C(=O)CNC(=O)c2ccco2)cc1 (stereo unspecified)", "CPE inhibition [%]": 0.14}
{"compound": "O=C(O)Cc1ccc(NC(=O)c2ccc3c(c2)C(=O)N(Cc2ccco2)C3=O)cc1", "CPE inhibition [%]": 1.76}

Bench note: what CPE inhibition did "Cc1cc(N2CCOCC2)nc2ccc(NC(=O)CCC(=O)N3CCN(c4ccccc4F)CC3)cc12" show?
13.8

I'd like to know its CPE inhibition. The compound in question is "COc1ccc(NCC(=O)Nc2cc(S(=O)(=O)N3CCOCC3)ccc2N2CCOCC2)c(OC)c1"
1.68

Value lookup for CPE inhibition; key = "O=C(O)/C(=C\c1cccc(F)c1)c1ccc(S(=O)(=O)N2CCCCC2)s1"
3.11

What value of CPE inhibition has been recorded for this entry: O=C(NC1CC2CCCC(C1)N2C(=O)Nc1ccccc1)C1CC1 (stereo unspecified)
1.59

---

- assay.name: inhibition of RSV-induced cytopathic effect – HEp-2 cells, primary 10 µM value included (AID 2391)
- experimental.conditions: at 10 µM, active compounds read high
Hit rate of the full screen: of about 310,000 compounds, about 410 (0.13%) were called active. Not shown: some 2% with an inconclusive outcome. These entries were drawn from the full list. Potency and affinity values are given separately.
quantity: CPE inhibition (%)
Give just the number in %; leave the unit off.

For orientation, consider the following solved cases.
{"mol.smiles": "COC(=O)c1nc(N)sc1C", "CPE inhibition, %": 1.76}
{"mol.smiles": "Clc1ccc(OCc2cn3ccccc3n2)c2ncccc12", "CPE inhibition, %": 4.9}
{"mol.smiles": "O=C(Nc1ccccc1)Nc1ccc(NC(=O)c2ccccc2O)cc1", "CPE inhibition, %": 1.31}
{"mol.smiles": "Cc1ccc(S(=O)(=O)NCCC(=O)NCc2ccccn2)cc1", "CPE inhibition, %": -1.85}
{"mol.smiles": "C=CCNC(=O)c1ccc(-c2nc(-c3ccc(Cl)cc3Cl)cs2)cc1", "CPE inhibition, %": 3.05}
{"mol.smiles": "COC(=O)c1ccc(COC(=O)CNC(=O)c2ccc(-c3ccccc3)cc2)cc1", "CPE inhibition, %": 3.63}

Given the compound "Cc1ccc(-c2nnc3c4ccccc4c(C)nn23)cc1S(=O)(=O)N1CCN(CCO)CC1" , what is its reported CPE inhibition?
8.23

Give its CPE inhibition value. Item: "O=C(CSc1nnc2ccccn12)Nc1ncc(Cl)cc1Cl"
4.23

---

- assay.name: inhibition of RSV-induced cytopathic effect – HEp-2 cells, primary 10 µM value included (AID 2391)
- experimental.conditions: at 10 µM, active compounds read high
Hit rate of the full screen: of about 310,000 compounds, about 410 (0.13%) were called active. Inconclusive results (about 2%) are left out. Not all results are given here. Results with a measured potency or affinity are listed apart.
quantity: CPE inhibition (%)
Record the value in %, omitting the unit from your answer.

A selection of reference data follows.
{"mol.smiles": "N#Cc1ccccc1CSc1ncccc1C(=O)O", "quantity": "CPE inhibition", "recorded.value": -0.85}
{"mol.smiles": "COCCNC(=O)c1cc2oc3ccccc3c2n1C", "quantity": "CPE inhibition", "recorded.value": 1.43}
{"mol.smiles": "O=C(O)c1ccccc1NCc1ccco1", "quantity": "CPE inhibition", "recorded.value": 0.7}
{"mol.smiles": "Cc1nnc2sc(-c3cccc(F)c3)nn2c1=O", "quantity": "CPE inhibition", "recorded.value": 0.29}
{"mol.smiles": "CCOc1ccc(CNC(=O)CCn2c(=O)oc3ccccc32)cc1", "quantity": "CPE inhibition", "recorded.value": 2.74}
{"mol.smiles": "Cc1c(C(=O)NCc2cccs2)oc2ccccc12", "quantity": "CPE inhibition", "recorded.value": 6.49}

The record that follows has no CPE inhibition shown yet.
Recorded CPE inhibition for "Cc1ccc(CNC(=O)c2cc3c(=O)n(C)c4ccccc4c3n2C)cc1" , please?
0.79

---

- assay.name: inhibition of RSV-induced cytopathic effect – HEp-2 cells, primary 10 µM value included (AID 2391)
- experimental.conditions: at 10 µM, active compounds read high
Screen size: about 310,000 compounds; about 410 (0.13%) were called active. Inconclusive results (about 2%) are left out. The list is a sample of the results. Entries with a potency or affinity are not part of this list.
quantity: CPE inhibition (%)
Report only the number, with the unit % understood.

Use these answered entries as a reference point.
{"compound": "Cc1ccc(-c2[nH]c3cc(C(=O)NCCCn4ccnc4)ccc3c(=O)c2O)cc1", "CPE inhibition [%]": 1.07}
{"compound": "COCCOc1cc(NC(=O)CS(=O)CC(=O)N(C)C)c(Cl)cc1Cl (stereo unspecified)", "CPE inhibition [%]": 1.9}
{"compound": "O=C(O)CSc1nnc(COc2ccc(Br)cc2)n1-c1ccccc1", "CPE inhibition [%]": 1.47}
{"compound": "COC(=O)c1cccc(NC(=O)c2ccc3c(c2)C(=O)N(C(C)(C)C)C3=O)c1", "CPE inhibition [%]": 9.97}

Item "CCOC(=O)CCCNC(=O)CCNC(=O)c1ccc(OCCC(C)C)cc1" has what recorded CPE inhibition?
-2.65

// lookup CPE inhibition for Cc1cc(OCC(O)CN2CCCC2)cc(C)c1Cl (stereo unspecified)
-0.91

Requested read-out: CPE inhibition. Entry: "O=C(Oc1ccc(-c2nnco2)cc1)N1CCCCC1"
2.35

Requested field: CPE inhibition. Item: "Cc1ccc(O)c(NC(=S)NC(=O)CC(C)C)c1"
0.23

Using the record for "O=C(N/N=C/c1ccc(Cl)cc1)C(=O)N1CCCCCC1" , report its CPE inhibition.
-0.12

Recorded CPE inhibition of "Cc1c(Cl)cccc1NC(=S)NCCN1CCOCC1" , please.
1.32

# get_value(readout='CPE inhibition', item= COC(=O)C1=C(N)Oc2cc(C)n(CCCn3ccnc3)c(=O)c2C1c1cccc(Cl)c1 (stereo unspecified) )
1.81

---

- assay.name: inhibition of RSV-induced cytopathic effect – HEp-2 cells, primary 10 µM value included (AID 2391)
- experimental.conditions: at 10 µM, active compounds read high
The whole screen tested about 310,000 compounds, of which about 410 (0.13%) were called active. Not shown: some 2% with an inconclusive outcome. Not all results are given here. Measured potencies and affinities stand elsewhere.
# CPE inhibition per record follows
Express the result in % but write the number alone.

Worked examples, 9 compounds total:
{"compound": "CCN(CC(=O)Nc1cc(Cl)ccc1C)C(=O)CCOc1ccc(C)cc1", "CPE inhibition (%)": 0.1}
{"compound": "Cc1ccc2cc(CN(CC3CCCO3)C(=S)NCc3ccco3)c(=O)[nH]c2c1 (stereo not given)", "CPE inhibition (%)": 1.42}
{"compound": "CC(=O)NC(c1ccc(F)cc1)c1cccnc1 (stereo not given)", "CPE inhibition (%)": 1.45}
{"compound": "CCN(CC(=O)Nc1cc(Cl)ccc1C)C(=O)CSCc1c(C)noc1C", "CPE inhibition (%)": 16.3}
{"compound": "Cc1ccc(S(=O)(=O)[N-]c2nc3ccccc3nc2-n2cc[n+](CCC(C)C)c2)cc1", "CPE inhibition (%)": 0.13}
{"compound": "Cc1ccc2cc(CN(Cc3ccco3)C(=S)NCC3CCCO3)c(=O)[nH]c2c1C (stereo not given)", "CPE inhibition (%)": 2}
{"compound": "Cc1ccc(-n2c(SCC(=O)N3CC(=O)Nc4ccccc43)nc3ccccc3c2=O)cc1", "CPE inhibition (%)": 3.64}
{"compound": "CCC(=O)NC(=S)Nc1ccc(NC(=O)COc2ccc(Cl)cc2Cl)cc1", "CPE inhibition (%)": 3.92}
{"compound": "COc1cc(NC(=S)N2CCN(Cc3ccccc3)CC2)cc(OC)c1", "CPE inhibition (%)": 4.9}

From here, focus on the item given below.
Would you kindly share the measured CPE inhibition for "Cc1[nH]c2c(Cl)cccc2c(=O)c1CN1CCCCCC1" ?
-1.59
